Attribution: patent US20090311217A1

target-or-system: UniProt P42336
Sequence (P42336 whole entry, species assumed): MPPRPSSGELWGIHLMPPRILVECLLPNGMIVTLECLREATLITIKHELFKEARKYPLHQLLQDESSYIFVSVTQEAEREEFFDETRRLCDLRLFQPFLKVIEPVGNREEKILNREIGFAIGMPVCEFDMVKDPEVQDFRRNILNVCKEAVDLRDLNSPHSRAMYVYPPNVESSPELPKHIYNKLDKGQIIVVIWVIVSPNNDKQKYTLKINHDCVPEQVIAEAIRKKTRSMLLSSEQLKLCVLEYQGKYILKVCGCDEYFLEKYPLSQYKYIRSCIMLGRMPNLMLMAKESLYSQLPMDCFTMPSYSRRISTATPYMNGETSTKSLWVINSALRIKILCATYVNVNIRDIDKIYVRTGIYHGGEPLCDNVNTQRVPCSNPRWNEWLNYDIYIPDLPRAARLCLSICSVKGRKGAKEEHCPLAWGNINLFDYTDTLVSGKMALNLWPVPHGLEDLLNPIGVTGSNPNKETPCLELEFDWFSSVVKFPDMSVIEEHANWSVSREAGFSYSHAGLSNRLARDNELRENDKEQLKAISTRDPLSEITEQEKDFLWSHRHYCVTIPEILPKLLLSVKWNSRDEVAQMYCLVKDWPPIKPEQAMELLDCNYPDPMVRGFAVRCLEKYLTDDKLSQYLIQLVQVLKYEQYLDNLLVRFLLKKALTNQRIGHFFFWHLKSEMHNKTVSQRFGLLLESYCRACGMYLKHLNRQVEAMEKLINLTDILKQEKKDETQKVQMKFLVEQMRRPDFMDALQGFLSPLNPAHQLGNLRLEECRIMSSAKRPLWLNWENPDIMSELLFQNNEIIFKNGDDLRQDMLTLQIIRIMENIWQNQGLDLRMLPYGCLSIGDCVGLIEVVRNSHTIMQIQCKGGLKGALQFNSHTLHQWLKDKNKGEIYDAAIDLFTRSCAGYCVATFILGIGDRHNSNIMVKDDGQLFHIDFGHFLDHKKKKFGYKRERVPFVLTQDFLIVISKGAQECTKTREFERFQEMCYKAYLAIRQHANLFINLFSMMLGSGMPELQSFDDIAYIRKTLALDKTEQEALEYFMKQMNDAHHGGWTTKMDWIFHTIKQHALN
Sequence (P27986 whole entry partner, species assumed): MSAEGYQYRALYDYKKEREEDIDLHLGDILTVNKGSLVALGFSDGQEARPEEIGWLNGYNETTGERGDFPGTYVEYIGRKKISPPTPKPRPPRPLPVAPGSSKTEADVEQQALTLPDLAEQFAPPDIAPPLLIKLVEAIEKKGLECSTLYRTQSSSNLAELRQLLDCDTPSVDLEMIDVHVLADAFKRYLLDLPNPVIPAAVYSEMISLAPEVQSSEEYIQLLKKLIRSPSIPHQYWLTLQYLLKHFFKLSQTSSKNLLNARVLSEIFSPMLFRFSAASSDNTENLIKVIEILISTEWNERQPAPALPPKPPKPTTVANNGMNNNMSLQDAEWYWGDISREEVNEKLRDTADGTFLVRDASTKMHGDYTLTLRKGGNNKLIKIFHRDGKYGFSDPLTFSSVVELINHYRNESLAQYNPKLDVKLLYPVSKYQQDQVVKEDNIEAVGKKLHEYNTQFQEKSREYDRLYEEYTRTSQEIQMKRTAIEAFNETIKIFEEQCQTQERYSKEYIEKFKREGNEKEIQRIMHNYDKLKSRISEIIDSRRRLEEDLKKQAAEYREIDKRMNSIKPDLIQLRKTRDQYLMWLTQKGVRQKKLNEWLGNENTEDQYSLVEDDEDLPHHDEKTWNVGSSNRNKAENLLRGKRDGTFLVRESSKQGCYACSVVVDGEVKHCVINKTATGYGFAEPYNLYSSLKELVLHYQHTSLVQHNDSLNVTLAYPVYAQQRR
test-protocol: PI3K-alpha fluorescence polarization assay
Type: biochemical
recorded-conditions: read-out: PI3Kα Avg. IC50
pIC50: −log10 of the molar value.
result-type: pIC50

// Input: O=C1/C(=C/c2c(-c3ccccc3)[nH]c3ccccc23)Sc2ccc(Cl)cc21 . Output its pIC50 only.
< 5.00

Look up pIC50 of COC(=O)Nc1ccc2c(c1)OC(=Cc1cn(CCCN(C)C)c3ccc(OC)cc13)C2=O and report it.
< 5.00

Supply recorded pIC50 for Cn1cc(C=C2Oc3cc(O)cc(O)c3C2=O)c2c(-c3ccccc3)cccc21 [Example 268] here.
< 5.24

Return reported pIC50. Input compound: COc1cccc2c1O/C(=C\c1c[nH]c3ccc(OCc4ccccc4)cc13)C2=O
< 5.00

----------
target-or-system: PI3K-gamma (Homo sapiens, UniProt P48736)
Sequence (P48736 whole entry, species assumed): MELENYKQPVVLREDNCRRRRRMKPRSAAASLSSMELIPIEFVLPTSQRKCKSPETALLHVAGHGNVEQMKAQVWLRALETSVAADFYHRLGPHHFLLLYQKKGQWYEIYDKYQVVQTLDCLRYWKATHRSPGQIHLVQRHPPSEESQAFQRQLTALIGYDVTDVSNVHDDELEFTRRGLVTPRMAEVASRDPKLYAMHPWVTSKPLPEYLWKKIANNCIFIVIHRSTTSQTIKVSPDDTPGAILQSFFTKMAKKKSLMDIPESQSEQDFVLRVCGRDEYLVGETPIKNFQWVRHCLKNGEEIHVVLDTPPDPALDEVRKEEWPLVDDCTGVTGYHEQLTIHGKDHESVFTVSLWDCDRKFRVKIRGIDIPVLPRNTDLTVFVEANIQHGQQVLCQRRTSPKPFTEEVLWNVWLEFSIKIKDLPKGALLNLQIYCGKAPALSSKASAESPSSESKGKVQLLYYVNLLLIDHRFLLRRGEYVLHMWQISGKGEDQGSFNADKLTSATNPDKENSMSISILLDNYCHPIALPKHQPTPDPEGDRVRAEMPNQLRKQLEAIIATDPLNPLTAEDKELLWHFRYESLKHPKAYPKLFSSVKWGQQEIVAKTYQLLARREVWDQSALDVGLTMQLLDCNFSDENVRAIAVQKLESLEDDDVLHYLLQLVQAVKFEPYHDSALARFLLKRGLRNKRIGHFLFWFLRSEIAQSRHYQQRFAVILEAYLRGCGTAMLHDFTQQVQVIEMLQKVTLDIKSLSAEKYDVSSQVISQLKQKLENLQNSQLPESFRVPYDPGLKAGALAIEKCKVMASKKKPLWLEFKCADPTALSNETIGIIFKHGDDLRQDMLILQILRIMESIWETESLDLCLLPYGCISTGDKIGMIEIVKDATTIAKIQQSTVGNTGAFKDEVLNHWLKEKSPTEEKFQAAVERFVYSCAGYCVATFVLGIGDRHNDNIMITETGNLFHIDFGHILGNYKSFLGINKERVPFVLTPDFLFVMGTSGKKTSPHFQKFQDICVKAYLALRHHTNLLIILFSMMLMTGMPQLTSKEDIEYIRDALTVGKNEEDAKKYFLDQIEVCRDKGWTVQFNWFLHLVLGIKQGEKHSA
test-protocol: PI3K-gamma fluorescence polarization assay
Format: biochemical
recorded-conditions: PI3Kγ Avg. IC50
Procedure: PI3K-Alpha, PI3K-Beta, PI3K-Gamma, and PI3K-delta Fluorescence Polarization Assay Protocols PI3-Kinase reactions were performed in 5 mM HEPES, pH 7, 2.5 mM MgCl2, and 25 μM ATP, with diC8-PI(4,5)P2 (Echelon, Salt Lake City Utah) as substrate. Nunc 384-well black polypropylene fluorescent plates were used for PI3K assays. […] Assay Plates were read on Perkin-Elmer Envision plate readers with appropriate filters for Tamra [BODIPY-TMRI(1,3,4,5)P4]. […]
pIC50: −log10 of the molar value.
Decision: pIC50 compared against 7; not below it gives 1 (yes), below it gives 0 (no).

Could you tell me if the measured pIC50 of COc1ccc2c(c1)c(/C=C1\Oc3ccc(NC(=O)NC4CNC4)cc3C1=O)cn2CCN1CCN(C)CC1 [Compound 552] reaches 7 or more?
0 (no)

Could you verify whether the entry COc1ccc2[nH]cc(/C=C3\Oc4cc(C#N)ccc4C3=O)c2c1 [Compound 508] shows pIC50 of no less than 7?
0 (no)

Does pIC50 meet or surpass 7 for COc1ccc2[nH]cc(/C=C3\Oc4ccc(NC(=O)Nc5cccnc5)cc4C3=O)c2c1 [Compound 484] ?
0 (no)

Quick check: does CCCCNC(=O)Nc1ccc2c(c1)C(=O)/C(=C/c1c[nH]c3ccc(OC)cc13)O2 [Compound 487] have pIC50 greater than or equal to 7?
0 (no)

Could you verify whether the entry COc1ccc2[nH]cc(C=C3Oc4c(OC)cccc4C3=O)c2c1 [Compound 483] shows pIC50 of no less than 7?
0 (no)

Exam item: decide whether the reported pIC50 for COc1ccc2c(c1)c(/C=C1\Oc3cc(O)cc(O)c3C1=O)c(-c1cnn(C)c1)n2CCN1CCN(C)CC1 [Example 341] is at least 7.
1 (yes)

Would you say COc1cc(F)c2[nH]c(-c3c(C)nn(C)c3C)c(/C=C3\Oc4ccc(NC(=O)Nc5ccc(C(=O)N6CCC(N(C)C)C6)cc5)cc4C3=O)c2c1 (centres unmarked) [Compound 732] shows pIC50 at minimum 7?
1 (yes)

----------
target-or-system: PI3K-gamma (Homo sapiens, UniProt P48736)
test-protocol: PI3K-gamma fluorescence polarization assay
Format: biochemical
recorded-conditions: PI3Kγ Avg. IC50
Exercise: state measured IC50 for each of the compounds provided.

Read the entry Cn1cc(/C=C2/Oc3cc(O)cc(O)c3C2=O)c2c(-c3ccccc3)cccc21 and write its reported IC50.
> 10 µM

Give recorded IC50. N#CCCCn1c(-c2cccnc2)c(C=C2Oc3cc(O)cc(O)c3C2=O)c2ccccc21
> 10 µM

Consider the compound CCNC(=O)Nc1ccc2c(c1)C(=O)/C(=C/c1cn(C)c3cccc(-c4ccccc4)c13)O2 and give its recorded IC50.
> 10 µM
